assay: NCI Yeast Anticancer Drug Screen. Data for the bub3 strain (AID 167); settings: S. cerevisiae bub3 mutant strain, at 5.0 µM (retest, dose inferred, filed as 0.5), active compounds read high
This is part of a sample that, as a whole, favours compounds with a hit. Of some 79,000 tested, about 15% had one in any assay.
Each item that follows carries a reported growth inhibition.
quantity kind: growth inhibition (%)

{"molecule": "Cc1occc1C(=S)Nc1ccc(Cl)c(C(=O)OCC(F)(F)F)c1", "quantity kind": "growth inhibition", "test value": 29}
{"molecule": "CSc1ccc(/C=C2/C[N+](C)(C)C/C(=C/c3ccc(SC)cc3)C2=O)cc1", "quantity kind": "growth inhibition", "test value": 6}
{"molecule": "CC(C)COC(=O)c1ccc(NC(=O)CCl)cc1", "quantity kind": "growth inhibition", "test value": 0}
{"molecule": "O=[N+]([O-])/C(Br)=C\\c1ccc([N+](=O)[O-])cc1", "quantity kind": "growth inhibition", "test value": 40}
{"molecule": "CCC[N+]1=C(/C=C/c2ccc3cccnc3c2O)C(C)(C)c2ccccc21", "quantity kind": "growth inhibition", "test value": 4}
{"molecule": "O=C(NC(c1ccccc1)N1CCOCC1)c1ccccc1 (stereo not given)", "quantity kind": "growth inhibition", "test value": -3}
{"molecule": "O=S(=O)(O)CC[S][Sn]([S]CCS(=O)(=O)O)([c]1ccccc1)[c]1ccccc1 (tested in a mixture with another compound)", "quantity kind": "growth inhibition", "test value": 59}
{"molecule": "O=C1O/C(=C2\\OC(=O)c3ccccc32)c2ccccc21", "quantity kind": "growth inhibition", "test value": 1}
{"molecule": "O=c1c(-c2ccccc2)c(-c2ccccc2)c1=O", "quantity kind": "growth inhibition", "test value": -38}
{"molecule": "CCCCCCCCCCCCCCCC[N+](C)(C)C(C)c1ccccc1 (stereo not given)", "quantity kind": "growth inhibition", "test value": 98}

Cited source for all entries: PubChem BioAssay (NCI)
